Value source: patent US10576062B2

# SYSTEM_UNDER_TEST: human LPA1 (Homo sapiens, UniProt Q92633)
# Construct: expressed in transfected cells; host or cells: Chinese hamster ovary (CHO) cells
# Sequence (Q92633 whole entry): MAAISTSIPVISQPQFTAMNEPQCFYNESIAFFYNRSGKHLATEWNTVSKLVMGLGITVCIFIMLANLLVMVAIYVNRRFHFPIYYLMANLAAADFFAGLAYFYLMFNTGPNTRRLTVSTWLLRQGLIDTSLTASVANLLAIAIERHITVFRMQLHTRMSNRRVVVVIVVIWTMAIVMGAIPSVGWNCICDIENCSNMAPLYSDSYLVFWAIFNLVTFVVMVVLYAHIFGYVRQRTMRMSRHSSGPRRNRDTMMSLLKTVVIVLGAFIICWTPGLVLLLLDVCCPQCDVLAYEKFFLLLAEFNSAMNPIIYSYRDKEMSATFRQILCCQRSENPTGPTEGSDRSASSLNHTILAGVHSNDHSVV
# TEST_DESCRIPTION: LPA1 functional antagonist assay (LPA-induced calcium flux)
# Assay type: cell-based
# CONDITION_SUMMARY: CHO cells overexpressing human LPA1; inhibition of calcium flux induced by 10 nM LPA; read-out: hLPA1 IC50
Listed here: items and their measured pIC50.
// pIC50: -log10(molar conc.)

Would you please look over these solved cases?
>>> print(df.to_string())
                                  structure  quantity_name  measured_result
0  CCCCN(C)C(=O)OCc1c(-c2ccc(O[C@H]3CCC[C@H](C(=O)O)C3)c(C(F)F)n2)nnn1C          pIC50             7.66
1  Cc1nc(-c2nnn(C)c2COC(=O)N(C)C[C@H]2C[C@@H]2C)cnc1O[C@H]1CCC[C@H](C(=O)O)C1          pIC50             7.34
2  CCc1nc(-c2nnn(C)c2COC(=O)N2CC3(CCC3)C2)ccc1O[C@H]1CCC[C@H](C(=O)O)C1          pIC50             7.17
3  CCCCN(C)C(=O)OCc1c(-c2ccc(O[C@H]3CCC[C@H](C(=O)O)C3)c(C(F)(F)F)n2)nnn1C          pIC50             8.25

Now consider the entry below.
Give recorded pIC50 with human LPA1 (Homo sapiens, UniProt Q92633) for the following compound: CCCC(C)(C)N(C)C(=O)OCc1c(-c2ccc(O[C@H]3CCC[C@H](C(=O)O)C3)cc2)nnn1C
7.64
